- study.target: UniProt P21802
- Sequence (P21802 22-821): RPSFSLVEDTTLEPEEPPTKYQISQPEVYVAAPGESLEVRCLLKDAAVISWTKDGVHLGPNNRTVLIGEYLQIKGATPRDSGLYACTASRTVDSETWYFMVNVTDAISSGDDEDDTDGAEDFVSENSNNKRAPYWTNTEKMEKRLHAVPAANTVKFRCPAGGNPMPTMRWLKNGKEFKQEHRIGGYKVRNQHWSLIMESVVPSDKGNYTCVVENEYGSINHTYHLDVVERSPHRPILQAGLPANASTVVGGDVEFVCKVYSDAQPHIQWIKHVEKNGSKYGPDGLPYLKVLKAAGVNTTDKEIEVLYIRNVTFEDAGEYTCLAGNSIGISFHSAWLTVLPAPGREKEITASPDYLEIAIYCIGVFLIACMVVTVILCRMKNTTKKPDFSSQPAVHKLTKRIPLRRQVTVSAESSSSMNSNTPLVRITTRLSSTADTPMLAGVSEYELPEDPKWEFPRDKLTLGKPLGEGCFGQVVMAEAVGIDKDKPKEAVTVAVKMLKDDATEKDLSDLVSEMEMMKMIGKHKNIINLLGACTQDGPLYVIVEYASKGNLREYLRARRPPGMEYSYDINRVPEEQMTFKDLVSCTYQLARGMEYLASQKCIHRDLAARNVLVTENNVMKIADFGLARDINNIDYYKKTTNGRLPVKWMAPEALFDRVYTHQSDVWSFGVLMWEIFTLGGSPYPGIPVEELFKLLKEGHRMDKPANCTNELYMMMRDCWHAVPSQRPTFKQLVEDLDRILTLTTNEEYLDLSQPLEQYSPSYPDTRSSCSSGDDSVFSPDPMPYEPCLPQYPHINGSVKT
- method.summary: Kinase assay, binding constants (Kd), kinase-tagged T7 phage, qPCR

| compound | study.target | Kd |
| --- | --- | --- |
| C[C@H](Oc1ccc2[nH]nc(-c3cnc(N4CCC4)c(C#N)c3)c2c1)c1c(Cl)cnc(F)c1Cl [Example 283] | UniProt P21802 | > 300 nM |
| COC(=O)N1CCC2(CC1)CN(c1ncc(-c3n[nH]c4ccc(O[C@H](C)c5c(Cl)cncc5Cl)cc34)cn1)C2 [Example 136] | UniProt P21802 | 1 to 20 nM |
| COc1cc(-c2n[nH]c3ccc(O[C@H](C)c4c(C)cnnc4C)cc23)cnc1N1CCCC1 [Example 305] | UniProt P21802 | > 300 nM |
| C[C@@H](Oc1cc2c(-c3cnc(N4CCC4)c(S(C)(=O)=O)c3)n[nH]c2cc1Cl)c1c(Cl)cncc1Cl [Example 370] | UniProt P21802 | > 300 nM |
| C[C@@H](Oc1ccc2[nH]nc(-c3ccc(N4CCC5(CCCO5)CC4)nc3)c2c1)c1c(Cl)cncc1Cl [Example 26] | UniProt P21802 | 20 to 100 nM |
| CCOC(=O)N1CC2(C1)CN(c1ccc(-c3n[nH]c4ccc(O[C@H](C)c5c(Cl)cnc(C)c5Cl)cc34)cn1)C2 [Example 190] | UniProt P21802 | 100 to 300 nM |
| C[C@@H](Oc1ccc2[nH]nc(-c3ccc(N4CCN5CCC[C@@H]5C4)nc3)c2c1)c1c(Cl)cncc1Cl [Example 184] | UniProt P21802 | 1 to 20 nM |
| Cc1cnnc(C)c1[C@@H](C)Oc1ccc2[nH]nc(-c3cnc(N4CC[C@@H](C(C)(C)O)C4)c(C#N)c3)c2c1 [Example 307] | UniProt P21802 | 20 to 100 nM |
| C[C@@H](Oc1ccc2[nH]nc(-c3cnn(C4CCS(=O)(=O)CC4)c3)c2c1)c1c(Cl)cncc1Cl [Example 114] | UniProt P21802 | 1 to 20 nM |
| Cc1cnnc(C)c1[C@@H](C)Oc1ccc2[nH]nc(-c3cnc(N4CC5CC(C4)N5)c(C#N)c3)c2c1 [Example 299] | UniProt P21802 | 20 to 100 nM |
| C[C@@H](Oc1ccc2[nH]nc(-c3ccc(N4CC5(C4)CN(S(C)(=O)=O)C5)nc3)c2c1)c1c(Cl)cncc1Cl [Example 46] | UniProt P21802 | 1 to 20 nM |
| C[C@@H](Oc1ccc2[nH]nc(-c3ccc(N4CCC5(CCOC5)CC4)nc3)c2c1)c1c(Cl)cncc1Cl [Example 28] | UniProt P21802 | 20 to 100 nM |
| COc1cc2[nH]nc(-c3cnc(N4CC5(C4)CN(S(C)(=O)=O)C5)c(F)c3)c2cc1O[C@H](C)c1c(Cl)cncc1Cl [Example 242] | UniProt P21802 | 1 to 20 nM |
| C[C@@H](Oc1ccc2[nH]nc(-c3ccc(N4CC5(C4)CN(S(C)(=O)=O)C5)nc3)c2c1)c1c(Cl)cccc1Cl [Example 170] | UniProt P21802 | 20 to 100 nM |

----------
- study.target: FGFR1 (Homo sapiens (Human))
- Sequence (P11362 22-822): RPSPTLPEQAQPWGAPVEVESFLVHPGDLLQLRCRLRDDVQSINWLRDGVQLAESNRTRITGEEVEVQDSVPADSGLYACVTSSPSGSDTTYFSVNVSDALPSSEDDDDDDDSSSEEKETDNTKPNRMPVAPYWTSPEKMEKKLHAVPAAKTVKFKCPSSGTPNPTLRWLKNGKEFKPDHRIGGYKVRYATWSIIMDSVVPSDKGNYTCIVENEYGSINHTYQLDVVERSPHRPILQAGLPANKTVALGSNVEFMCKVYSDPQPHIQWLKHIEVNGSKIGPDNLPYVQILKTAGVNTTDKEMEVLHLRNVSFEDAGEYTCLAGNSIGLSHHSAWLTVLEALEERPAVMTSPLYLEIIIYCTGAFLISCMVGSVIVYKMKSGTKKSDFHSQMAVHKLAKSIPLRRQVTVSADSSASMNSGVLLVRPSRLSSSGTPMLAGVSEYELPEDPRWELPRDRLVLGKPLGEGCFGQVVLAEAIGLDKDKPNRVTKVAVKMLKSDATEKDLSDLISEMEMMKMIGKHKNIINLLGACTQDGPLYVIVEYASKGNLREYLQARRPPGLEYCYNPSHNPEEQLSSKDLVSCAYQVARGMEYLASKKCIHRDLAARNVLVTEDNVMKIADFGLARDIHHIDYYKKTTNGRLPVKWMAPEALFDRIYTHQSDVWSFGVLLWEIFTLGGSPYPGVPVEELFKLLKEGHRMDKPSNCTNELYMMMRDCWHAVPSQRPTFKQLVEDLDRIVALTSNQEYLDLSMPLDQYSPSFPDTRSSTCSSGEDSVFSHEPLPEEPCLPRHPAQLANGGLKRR
- method.summary: Kinase assay, binding constants (Kd), kinase-tagged T7 phage, qPCR
- Protocol: Kinase-tagged T7 phage strains were prepared in an E. coli host derived from the BL21 strain. E. coli were grown to log-phase and infected with T7 phage and incubated with shaking at 32° C. until lysis. The lysates were centrifuged and filtered to remove cell debris. […] Test compounds were prepared as 111λ stocks in 10000 DMS0. Kds were determined using an 11-point 3-fold compound dilution series with three DMSO control points. […] The kinase concentration in the eluates was measured by qPCR. […]
Catalogue of Kd readings, one per entry.
readout: Kd

| sample.smiles | assay.value |
| --- | --- |
| C[C@@H](Oc1ccc2[nH]nc(-c3ccc(F)nc3)c2c1)c1c(Cl)cncc1Cl | 20 to 100 nM |
| COc1cc2[nH]nc(-c3cnc(N4CC5(C4)CN(S(C)(=O)=O)C5)c(C#N)c3)c2cc1O[C@H](C)c1c(Cl)cncc1Cl | 20 to 100 nM |
| C[C@@H](Oc1cc2c(-c3cnc(N4CCC4)c(S(C)(=O)=O)c3)n[nH]c2cc1Cl)c1c(Cl)cncc1Cl | > 300 nM |
| COc1cc2[nH]nc(-c3cnc(N4CC5(C4)CN(S(C)(=O)=O)C5)c(C)c3)c2cc1O[C@H](C)c1c(Cl)cncc1Cl | 1 to 20 nM |
| C[C@@H](Oc1ccc2[nH]nc(-c3ccc(N4CCN(C(=O)N5CCN(C)CC5)CC4)nc3)c2c1)c1c(Cl)cncc1Cl | 1 to 20 nM |
| COC(=O)N1CCCC2(C1)CN(c1ccc(-c3n[nH]c4ccc(O[C@H](C)c5c(C)cnnc5C)cc34)cn1)C2 | 1 to 20 nM |
| COc1cc(-c2n[nH]c3ccc(O[C@H](C)c4c(Cl)cncc4Cl)cc23)cnc1N1CCOCC1 | > 300 nM |
| C[C@@H](Oc1ccc2[nH]nc(-c3ccc(N4CCN5C[C@H](O)C[C@H]5C4)nc3)c2c1)c1c(Cl)cncc1Cl | 1 to 20 nM |
| C[C@@H]1CCN1c1ncc(-c2n[nH]c3cc(Cl)c(O[C@H](C)c4c(Cl)cncc4Cl)cc23)cc1C#N | > 300 nM |
| COC(=O)N1CCCC2(C1)CN(c1ccc(-c3n[nH]c4ccc(O[C@H](C)c5c(Cl)cncc5Cl)cc34)cn1)C2 | 20 to 100 nM |
| Cc1ncc(Cl)c([C@@H](C)Oc2ccc3[nH]nc(-c4cnc(N5CC6(CCCS(=O)(=O)C6)C5)c(C#N)c4)c3c2)c1Cl | 100 to 300 nM |
| COC(=O)N1CCN(c2ccc(-c3n[nH]c4ccc(O[C@H](C)c5c(Cl)cncc5Cl)cc34)cn2)CC1 | 1 to 20 nM |
| Cc1ncc(Cl)c([C@@H](C)Oc2cc3c(-c4cnc(N5CC6(C5)CN(S(C)(=O)=O)C6)c(C#N)c4)n[nH]c3cc2F)c1Cl | 100 to 300 nM |
| C[C@@H](Oc1ccc2[nH]nc(-c3cnc(N4CC(C(F)(F)F)C4)c(C#N)c3)c2c1)c1c(Cl)cncc1Cl | > 300 nM |
| C[C@@H](Oc1ccc2[nH]nc(-c3ccc(N4CCS(=O)(=O)CC4)nc3)c2c1)c1c(Cl)cncc1Cl | 1 to 20 nM |
| C[C@@H](Oc1ccc2[nH]nc(-c3cnc(N4CCCC4)c(C#N)c3)c2c1)c1c(Cl)cncc1Cl | > 300 nM |
| COc1cc2[nH]nc(-c3cnc(N4CCC4)c(F)c3)c2cc1O[C@H](C)c1c(Cl)cncc1Cl | 20 to 100 nM |
| C[C@@H](Oc1ccc2[nH]nc(-c3cnc(N4CC5(CCCS(=O)(=O)C5)C4)c(C#N)c3)c2c1)c1c(Cl)cncc1Cl | 100 to 300 nM |
| C[C@@H](Oc1cc2c(-c3cnc(N4CC(C)(C)C4)c(C#N)c3)n[nH]c2cc1Cl)c1c(Cl)cncc1Cl | 20 to 100 nM |
| C[C@@H](Oc1ccc2[nH]nc(-c3ccc(N4CCN5CCC[C@@H]5C4)nc3)c2c1)c1c(Cl)cncc1Cl | 1 to 20 nM |
| COC(=O)N1CCC2(CC1)CN(c1ccc(-c3n[nH]c4ccc(O[C@H](C)c5c(Cl)cncc5Cl)cc34)cn1)C2 | 20 to 100 nM |
| C[C@@H](Oc1ccc2[nH]nc(-c3ccc(N4CCN(C(=O)N(C)C)C5(CC5)C4)nc3)c2c1)c1c(Cl)cncc1Cl | > 300 nM |
| CC(C)S(=O)(=O)N1CC2(CN(c3ncc(-c4n[nH]c5ccc(O[C@H](C)c6c(Cl)cncc6Cl)cc45)cn3)C2)C1 | 20 to 100 nM |
| C[C@@H](Oc1ccc2[nH]nc(-c3cnc(N4CCC5(CCN(C)C5=O)CC4)nc3)c2c1)c1c(Cl)cncc1Cl | 20 to 100 nM |
| Cc1cc(-c2n[nH]c3ccc(O[C@H](C)c4c(Cl)cnc(C)c4Cl)cc23)cnc1N1CC2(CCOC2)C1 | 100 to 300 nM |
| Cc1cnnc(C)c1[C@@H](C)Oc1ccc2[nH]nc(-c3ccc(N4CCN5CCC[C@@H]5C4)nc3)c2c1 | 1 to 20 nM |
| C[C@@H](Oc1ccc2[nH]nc(-c3cnn(C4CCNCC4)c3)c2c1)c1cc(F)cc(F)c1 | 20 to 100 nM |
